- ASSAYED_SYSTEM: viral kinase pUL-97 (Human cytomegalovirus, UniProt P16788)
- Construct: The pUL-97 gene was cloned into a baculovirus vector; GST (glutathione S-transferase) (N); made in house; host or cells: Sf9 insect cells, baculovirus
- Sequence (P16788 whole entry): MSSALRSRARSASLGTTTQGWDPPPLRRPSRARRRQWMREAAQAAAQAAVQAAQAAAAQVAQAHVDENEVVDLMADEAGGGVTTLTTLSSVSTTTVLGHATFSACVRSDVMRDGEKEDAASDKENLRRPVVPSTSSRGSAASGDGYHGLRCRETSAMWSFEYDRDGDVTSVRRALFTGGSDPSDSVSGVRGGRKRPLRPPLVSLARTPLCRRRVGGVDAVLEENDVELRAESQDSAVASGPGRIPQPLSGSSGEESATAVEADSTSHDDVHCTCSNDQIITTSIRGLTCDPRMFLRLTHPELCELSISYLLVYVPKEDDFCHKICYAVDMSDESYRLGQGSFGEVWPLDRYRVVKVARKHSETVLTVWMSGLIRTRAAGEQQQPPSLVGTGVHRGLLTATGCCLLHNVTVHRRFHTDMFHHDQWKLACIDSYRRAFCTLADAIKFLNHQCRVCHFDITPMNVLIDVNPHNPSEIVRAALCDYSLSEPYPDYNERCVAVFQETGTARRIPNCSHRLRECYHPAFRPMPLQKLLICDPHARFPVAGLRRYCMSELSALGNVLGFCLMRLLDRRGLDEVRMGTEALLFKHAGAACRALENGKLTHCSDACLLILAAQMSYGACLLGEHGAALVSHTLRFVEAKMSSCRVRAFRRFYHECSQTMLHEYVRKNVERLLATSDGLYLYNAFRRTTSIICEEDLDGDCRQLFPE
- EXPERIMENT: UL97 kinase assay on Immobilon plate
- Assay type: biochemical
EXPERIMENTAL_READOUT: IC50

Endpoint output: IC50 of CN(C)CCNC(=O)c1cccc(-c2cncc(Nc3ccc(C#N)c(Cl)c3)n2)c1 [Comp. 22] . Value?
< 1 µM

* * *

- ASSAYED_SYSTEM: viral kinase pUL-97 (Human cytomegalovirus)
- Construct: The pUL-97 gene was cloned into a baculovirus vector; GST (glutathione S-transferase) (N); made in house; host or cells: Sf9 insect cells, baculovirus
- EXPERIMENT: UL97 kinase assay on Immobilon plate
- Type: biochemical
- CONDITION_CONTEXT: inhibition of UL 97 kinase activity; class by IC50 / % inhibition at 10 μM or 100 μM; read-out: Activity Class [A, B, C]
EXPERIMENTAL_READOUT: IC50

Return IC50 measured with viral kinase pUL-97 (Human cytomegalovirus) given this molecule: `c1ccc2c(-c3cncc(N4CCN(c5ccncc5)CC4)n3)csc2c1`
1 to 10 µM

Try `Fc1ccc(N2CCN(c3cncc(-c4ccc5ccccc5c4)n3)CC2)cc1` next.
< 1 µM

Next molecule: `COc1ccc2cc(-c3cncc(N4CCN(c5ccc(C(C)=O)cc5)CC4)n3)ccc2c1`
1 to 10 µM

Queued: `COc1cccc(N2CCN(c3cncc(-c4ccc(F)cc4)n3)CC2)c1`
1 to 10 µM

Another molecule to look at: `Cc1cccc(-c2cncc(N3CCN(c4ccccn4)CC3)n2)c1`
10 to 100 µM

One more molecule: `CN(C)c1ccc(-c2cncc(N3CCN(c4ccc(Cl)cc4)CC3)n2)cc1`
10 to 100 µM

What do you have for `CC(=O)c1ccc(-c2cncc(N3CCN(c4cccc(C)c4C)CC3)n2)s1` ?
10 to 100 µM

And the next one, `CC(=O)c1cccc(-c2cncc(N3CCN(c4ccccn4)CC3)n2)c1` ?
1 to 10 µM

Proceed to Cc1cccc(N2CCN(c3cncc(-c4cc5ccccc5s4)n3)CC2C)c1 (stereo not drawn)
10 to 100 µM

Ref: patent US20080194574A1
